Sourced from PubChem BioAssay (NCATS)

# systemName: ATP-dependent 6-phosphofructokinase (Trypanosoma brucei brucei) (UniProt O15648)
# Sequence (O15648 whole entry, looked up): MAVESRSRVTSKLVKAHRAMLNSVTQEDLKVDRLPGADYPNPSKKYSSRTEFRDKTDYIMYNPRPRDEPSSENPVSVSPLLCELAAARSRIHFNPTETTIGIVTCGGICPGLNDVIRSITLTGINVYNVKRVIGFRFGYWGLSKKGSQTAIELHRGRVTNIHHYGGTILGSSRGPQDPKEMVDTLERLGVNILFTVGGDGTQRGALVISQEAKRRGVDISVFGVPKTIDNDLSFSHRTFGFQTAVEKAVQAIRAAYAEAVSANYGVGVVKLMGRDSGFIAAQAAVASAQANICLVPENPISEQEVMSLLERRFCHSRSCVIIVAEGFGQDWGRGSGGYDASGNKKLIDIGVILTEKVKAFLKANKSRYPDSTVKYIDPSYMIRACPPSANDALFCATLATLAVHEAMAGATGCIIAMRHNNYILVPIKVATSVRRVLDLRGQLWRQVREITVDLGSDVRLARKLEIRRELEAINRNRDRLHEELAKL
# experimentNotes: qHTS Assay to Find Inhibitors of T. brucei phosphofructokinase: hit validation (AID 492961);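 further: luminescence reports ADP formed as PFK phosphorylates fructose-6-phosphate with ATP; on the % scale 0 is the no-effect control and ±100 the full control effect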
# conditionDescription: T. brucei PFK, ADP-Glo luminescence; series mostly up to 51.4 µM
Records with an inconclusive call do not appear. Calls of active or inactive are those of the source. The call rests on the fitted dose curve; in most records, active means well fitted inhibition curve with a large enough effect; inconclusive means small, poorly fitted or top-dose-only effect, or effect the other way; inactive means flat fitted curve, though single readings scatter.
readout: outcome

Before answering, review these 5 worked examples.
1) CC(C)(C)c1ccc(C(=O)CCCN2CCC(OC(c3ccccc3)c3ccccc3)CC2)cc1 ... inactive
2) O=C(CCNNC(=O)c1ccncc1)NCc1ccccc1 ... inactive
3) OCCN1CCN(CCCN2c3ccccc3C=Cc3ccccc32)CC1 ... inactive
4) CCOC(=O)c1cnc2c(cnn2CC)c1NN=C(C)C ... inactive
5) CN(C)CC[C@@H](c1ccc(Br)cc1)c1ccccn1 ... inactive

For the 7 compounds below, give their outcome values.
1. NC(=O)c1ncn([C@@H]2O[C@H](CO)[C@@H](O)[C@H]2O)c1O
2. CN(C)CCOC(=O)COc1ccc(Cl)cc1
3. NC1=NCC2c3ccccc3Cc3ccccc3N12 (configuration not stated)
4. C[N+](C)(C)CCCCCCCCCC[N+](C)(C)C
5. CN(C)C(=O)Oc1ccc[n+](C)c1
6. OCCN1CCN(CC/C=C2/c3ccccc3Sc3ccc(C(F)(F)F)cc32)CC1
7. Cc1ccc(=O)n(-c2ccccc2)c1

1: inactive; 2: inactive; 3: inactive; 4: inactive; 5: inactive; 6: inactive; 7: inactive

###

# experimentNotes: AP1 Signaling Pathway (AID 357);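 further: ME-180 reporter cells stimulated with EGF at its EC50 level; on the % scale 0 is the no-effect control and ±100 the full control effect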
# conditionDescription: ME-180 (cervical carcinoma) AP-1-bla reporter, EGF-induced, beta-lactamase ratio, 5 h; at 17.2 µM (top of the series)
Records with an inconclusive call do not appear.
Would you kindly list activity change, negative = inhibition for each of these compounds?
Numbers only, in %.

The following compounds have reported results that may help.
1. CCCN(CCC)C(=O)C(CCC(=O)O)NC(=O)c1ccccc1 (stereo not drawn) ... 1.43
2. COc1cc(Cc2cnc(N)nc2N)cc(OC)c1OC ... 1.37
3. C[C@]12CCC(=O)C=C1CC[C@@H]1[C@@H]2CC[C@@]2(C)[C@H]1CC[C@]2(O)C(=O)CO ... 14.7

Parameters: items (list). Returns: activity change, negative = inhibition for each item.
1. C=CCc1ccccc1OCC(O)CNC(C)C (stereo not drawn)
2. c1ccc2c(c1)CCCC2C1=NCCN1 (stereo not drawn)
3. CN(C)CC/C=C1\c2ccccc2COc2ccccc21
4. CC(C)NNC(=O)c1ccncc1
5. Brc1c(NC2=NCCN2)ccc2nccnc12
6. O=C(O)CN(CCN(CC(=O)O)CC(=O)O)CCN(CC(=O)O)CC(=O)O
7. COCCCC/C(=N\OCCN)c1ccc(C(F)(F)F)cc1

1: 12.6; 2: 6.93; 3: 22.2; 4: 5.09; 5: -0.374; 6: -3.91; 7: 14.9

// for each compound below, give its activity change, negative = inhibition
1. Cc1nc2sccn2c(=O)c1CCN1CCC(=C(c2ccc(F)cc2)c2ccc(F)cc2)CC1
2. Fc1ccc(C(c2ccc(F)cc2)N2CCN(C/C=C/c3ccccc3)CC2)cc1
3. OC(CCN1CCCCC1)(c1ccccc1)C1CCCCC1 (stereo not drawn)

[-9.89, -10.9, 5.32]

###

# System: PC49
# experimentNotes: qHTS profiling for inhibitors of Plasmodium falciparum proliferation (AID 504749); further: nearly all actives have a fitted effect of over 60% in size
# conditionDescription: P. falciparum in erythrocytes, SYBR Green DNA, 72 h; series mostly up to 28.7 µM
Inconclusive results are not listed. Activity calls are given as the source filed them. Calls follow the shape of the dose curve; as a rule, active = well fitted inhibition curve with a large enough effect; inconclusive = small, poorly fitted or top-dose-only effect; inactive = flat fitted curve, though single readings scatter.
Select the matching outcome among t (active), f (inactive)

Reference set, count: 2
1) Nc1c2c(nc3ccccc13)CCCC2O (configuration not stated) ... f
2) NC(=O)c1cn(Cc2c(F)cccc2F)nn1 ... f

What classification did Cc1ccc(=O)n(-c2ccccc2)c1 end up with in this test?
f

# fetch the recorded call for CCN(CC)CCNC(=O)c1ccc(NC(C)=O)cc1 here
f

Returns: the outcome recorded for CC(C)NNC(=O)c1ccncc1 in this assay.
f

Please share the test call associated with COc1cc2c(cc1OC)-c1cc(=Nc3c(C)cc(C)cc3C)n(C)c(=O)n1CC2 .
t

Any idea what this test logged for CC(C)[N+](C)(CCOC(=O)C1c2ccccc2Oc2ccccc21)C(C)C ?
f

Assay result, entry CCn1ccnc1CC1COc2ccccc2O1 (configuration not stated) — outcome?
f

Record request — test call for C[C@]12CCC(=O)C=C1CC[C@@H]1[C@@H]2CC[C@@]2(C)[C@H]1CC[C@]2(O)C(=O)CO
f

Could you please tell me the result logged for CC(C)(Oc1ccc(CCNC(=O)c2ccc(Cl)cc2)cc1)C(=O)O in this assay?
f

Write down the call the test reported for this compound. Item: CN(C)C(=O)Oc1ccc[n+](C)c1
f

###

# experimentNotes: qHTS of pediatric cancer cell lines to identify multiple opportunities for drug repurposing: Primary screen for BT-37 cells (AID 1347094);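 further: plate controls were DMSO for no effect and bortezomib for full effect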
# conditionDescription: BT-37 viability, CellTiter-Glo luminescence, 48 h; series mostly up to 57.3 µM
Results filed as inconclusive are left out. Active and inactive are the calls of the source. The call rests on the fitted dose curve; in most records, active means well fitted cell-killing curve with a large enough effect; inconclusive means small, poorly fitted or top-dose-only effect; inactive means flat fitted curve, though single readings scatter.
Hello, when you answer, please use one of the following outcomes: class 1 for active, class 0 for inactive

// below: answered compounds
1. Cc1scc2c1N(C(=O)CN1CCN(C)CC1)c1ccccc1NC2=O ... class 0
2. Cc1cccc(C)c1NC(=O)C(C)N (configuration not stated) ... class 0
3. NS(=O)(=O)c1cc2c(cc1Cl)NC(C1CC3C=CC1C3)NS2(=O)=O (configuration not stated) ... class 0
4. COCCc1ccc(OCC(O)CNC(C)C)cc1 (configuration not stated) ... class 0
5. O=C1CC2(CCCC2)CC(=O)N1CCCCN1CCN(c2ncccn2)CC1 ... class 0

Short answer needed: outcome of this test for NC(=Nc1ccccc1)Nc1ccccc1 ?
class 0

Can you look up the reported call for CCCCCCCC/C=C\CCCCCCCC(=O)NCc1ccc(O)c(OC)c1 for me?
class 0

Returns: the outcome recorded for Cc1ccc(Cl)c(Nc2ccccc2C(=O)O)c1Cl in this assay.
class 0

###

# systemName: Thioredoxin reductase 1, cytoplasmic (Rattus norvegicus) (UniProt O89049)
# Sequence (O89049 whole entry, looked up): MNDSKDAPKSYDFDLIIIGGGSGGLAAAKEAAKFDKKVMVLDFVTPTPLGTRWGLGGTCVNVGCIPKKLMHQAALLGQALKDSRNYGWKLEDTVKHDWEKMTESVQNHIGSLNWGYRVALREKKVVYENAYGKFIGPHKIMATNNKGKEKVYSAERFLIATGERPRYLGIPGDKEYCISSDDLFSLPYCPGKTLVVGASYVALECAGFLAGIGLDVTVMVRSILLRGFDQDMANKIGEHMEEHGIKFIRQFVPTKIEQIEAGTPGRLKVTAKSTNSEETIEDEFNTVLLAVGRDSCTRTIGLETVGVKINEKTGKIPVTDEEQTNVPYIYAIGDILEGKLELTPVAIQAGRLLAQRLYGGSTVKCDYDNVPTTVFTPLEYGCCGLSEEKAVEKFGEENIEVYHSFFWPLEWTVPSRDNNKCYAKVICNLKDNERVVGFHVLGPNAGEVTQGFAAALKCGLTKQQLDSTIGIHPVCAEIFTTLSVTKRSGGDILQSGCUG
# experimentNotes: qHTS Assay for Inhibitors of Mammalian Selenoprotein Thioredoxin Reductase 1 (TrxR1) (AID 488773);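 further: drop in NADPH fluorescence over an 8 min run after selenite addition; on the % scale 0 is the no-effect control and ±100 the full control effect; nearly all actives have a fitted effect of over 40% in size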
# conditionDescription: purified TrxR1 enzyme activity; inhibition; series mostly up to 57.1 µM
Records with an inconclusive call do not appear. Active and inactive are the calls of the source. Calls come from the whole dose curve; as a rule, active = well fitted inhibition curve with a large enough effect; inconclusive = small, poorly fitted or top-dose-only effect; inactive = no such curve, though single readings can be large or run the other way.
readout: outcome

A selection of reference data follows.
1. CCc1cccc(N(C)C(N)=Nc2cccc3ccccc23)c1 ... inactive
2. Nc1nc(N)c2nc(-c3ccccc3)c(N)nc2n1 ... inactive
3. NC1=NCC2c3ccccc3Cc3ccccc3N12 (stereo not drawn) ... inactive
4. C[C@@H](O)[C@H]1C(=O)N2C(C(=O)O)=C(SCCN=CN)C[C@H]12 ... inactive

Count: 8. Required value per item: outcome.
1. CN(C)CC/C=C1\c2ccccc2COc2ccccc21
2. Nc1c2c(nc3ccccc13)CCCC2O (stereo not drawn)
3. CN(C)C(=O)Oc1ccc[n+](C)c1
4. NCCCNCCSP(=O)(O)O
5. CC(C(=O)O)c1ccc(CC2CCCC2=O)cc1 (stereo not drawn)
6. COCC(=O)O[C@]1(CCN(C)CCCc2nc3ccccc3[nH]2)CCc2cc(F)ccc2[C@@H]1C(C)C
7. C=CCc1ccccc1OCC(O)CNC(C)C (stereo not drawn)
8. CCCCCN(CCCCC)C(=O)C(CCC(=O)O)NC(=O)c1ccc(Cl)c(Cl)c1 (stereo not drawn)

1: inactive; 2: inactive; 3: inactive; 4: inactive; 5: inactive; 6: inactive; 7: inactive; 8: inactive

Recall the reported outcome of NC(Cc1ccc(Cl)cc1)C(=O)O (stereo not drawn) when tested on Thioredoxin reductase 1, cytoplasmic (Rattus norvegicus) (UniProt O89049).
inactive

###

# experimentNotes: qHTS for differential inhibitors of proliferation of Plasmodium falciparum line 7G8 (AID 1815);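 further: parasite growth measured after three days of incubation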
# conditionDescription: Plasmodium falciparum 7G8 proliferation inhibition; series mostly up to 28.7 µM
Results filed as inconclusive are left out. Activity calls are given as the source filed them. The call rests on the fitted dose curve; in most records, active means well fitted curve in the direction sought with a large enough effect; inconclusive means small, poorly fitted or top-dose-only effect, or another doubt; inactive means no such curve, though single readings can be large or run the other way.
Entry note: the call must match one of 1 for active, -1 for inactive

Sample answers from the record:
1) CCOC(=O)C1=C(C)NC(C)=C(C(=O)OC)C1c1cccc([N+](=O)[O-])c1 (stereo unspecified) ... 1
2) C[N+](C)(C)CCOC(N)=O ... -1
3) O=C(O)CCCCCCCC(=O)O ... -1
4) CCN1CCC[C@H]1CNC(=O)c1c(O)c(Cl)cc(Cl)c1OC ... -1
5) COc1ccc(CCN(C)CCCC(C#N)(c2cc(OC)c(OC)c(OC)c2)C(C)C)cc1OC (stereo unspecified) ... 1

--- query ---
Answer briefly: the call reported for CCCN(CCC)CCc1cccc2c1CC(=O)N2 in this assay.
-1

###

Kindly supply the reported activity, negative = cell killing values for the records listed here.
# experimentNotes: Drug repurposing screens with cells derived from glioblastoma tumor samples (AID 1345199); further: on the % scale 0 is the no-effect control and ±100 the full control effect; nearly all actives have a fitted effect of over 40% in size
# conditionDescription: GBM patient neurospheres viability, ATP luminescence, 48 h; at 46.1 µM (top of the series); tumour line C
Inconclusive results are not listed. Activity calls are given as the source filed them. The call rests on the fitted dose curve; in most records, active means well fitted inhibition curve with a large enough effect; inconclusive means small, poorly fitted or top-dose-only effect; inactive means flat fitted curve, though single readings scatter.

Below are worked cases with known answers.
1. CCN1CCc2nc(N)oc2CC1 ... -18.3% (inactive)
2. NC(=O)N1c2ccccc2C=Cc2ccccc21 ... -16.6% (inactive)
3. COc1ccc([C@@H]2Sc3ccccc3N(CCN(C)C)C(=O)[C@@H]2OC(C)=O)cc1 ... -13.9% (inactive)
4. CN(C)C(=O)Oc1cccc([N+](C)(C)C)c1 ... -4.3% (inactive)
5. CSc1ccc(C(=O)c2[nH]c(=O)[nH]c2C)cc1 ... -21.1% (inactive)

Dear colleague, could you please provide activity, negative = cell killing for the compounds listed below?
1. CC(C)NNC(=O)c1ccncc1
2. Cc1nnc(SCC2=C(C(=O)O)N3C(=O)[C@@H](NC(=O)Cn4cnnn4)[C@H]3SC2)s1
3. CCN(Cc1ccncc1)C(=O)C(CO)c1ccccc1 (stereo not given)
4. CCn1ccnc1CC1COc2ccccc2O1 (stereo not given)
5. CCCOc1ccccc1-c1nc2n[nH]nc2c(=O)[nH]1

1: -23.6% (inactive); 2: -9.01% (inactive); 3: 1.27% (inactive); 4: -8.32% (inactive); 5: -19% (inactive)

For every item below, please supply its activity, negative = cell killing.
1. NS(=O)(=O)c1cc2c(cc1Cl)NC(C1CC3C=CC1C3)NS2(=O)=O (stereo not given)
2. O=c1[nH]c(=O)n([C@H]2C[C@H](O)[C@@H](CO)O2)cc1Br
3. C#CCN(C)CCCOc1ccc(Cl)cc1Cl
4. O=C(O)CN(CCOCCOCCN(CC(=O)O)CC(=O)O)CC(=O)O

1. -5.22% (inactive)
2. -12.6% (inactive)
3. -14.2% (inactive)
4. 4.28% (inactive)

Here are 5 compounds. What values of activity, negative = cell killing were reported for them?
1. CNC1(C)C2CCC(C2)C1(C)C (stereo not given)
2. CC(=O)OCC1=C(C(=O)O)N2C(=O)[C@@H](NC(=O)Cc3cccs3)[C@H]2SC1
3. Nc1nc(N)c2nc(-c3ccccc3)c(N)nc2n1
4. c1cnc(N2CCN(Cc3ccc4c(c3)OCO4)CC2)nc1
5. COc1ccc(CN(CCN(C)C)c2ccccn2)cc1

["3.06% (inactive)", "-19.9% (inactive)", "0.453% (inactive)", "-21.6% (inactive)", "-2.37% (inactive)"]

Dear reader, for each entry below, please note its activity, negative = cell killing.
1. NC(N)=NC(=O)Cc1c(Cl)cccc1Cl
2. CC(C)COCC(CN(Cc1ccccc1)c1ccccc1)N1CCCC1 (stereo not given)
3. C[C@H](CS)C(=O)N1CCC[C@H]1C(=O)O
4. CCCCNC(=O)NS(=O)(=O)c1ccc(C)cc1
5. COc1cc(C(=O)OCCCN2CCCN(CCCOC(=O)c3cc(OC)c(OC)c(OC)c3)CC2)cc(OC)c1OC
6. CN=C(NC#N)NCCSCc1nc[nH]c1C

["-19.8% (inactive)", "-7.32% (inactive)", "-15.5% (inactive)", "8.27% (inactive)", "-7.95% (inactive)", "-4.17% (inactive)"]
